Assay: PAMPA membrane permeability assay
Format: in vitro ADME
Conditions: PAMPA; 25 °C, 5 h, 100 μmol/L; read-out: PAMPA Pe

{"compound": "CO[C@H]1OC(=O)C=C2[C@@]13O[C@@H]3[C@H]1OC(=O)[C@@]3(C)CCC[C@@]2(C)[C@@H]13 [compound 1, oidiolactone A]", "reading unit": "×10⁻⁶ cm/s", "Papp at 5 h, 100 μmol/L": 11}

---

Tested on: HepG2 human hepatocytes
Assay: HepG2 cytotoxicity assay (MTS)
Type: cell-based
Conditions: 48 h, mean +/- SD
This section presents molecules with their documented TC50 HepG2 values.

{"molecule": "C[C@]12CCC[C@](C)(C(=O)O)[C@@H]1C=C[C@]1(O)COC(=O)C[C@H]21", "experimental target": "HepG2 human hepatocytes", "TC50 HepG2": "> 25 µM"}
{"molecule": "C[C@@]12CCC[C@]3(C)C4=CC(=O)O[C@@H](O)[C@]45O[C@@H]5[C@@H](OC1=O)[C@@H]23", "experimental target": "HepG2 human hepatocytes", "TC50 HepG2": "> 25 µM"}
{"molecule": "C=C1C(O)C[C@@H]2[C@](C)(CCC[C@]2(C)C(=O)O)[C@H]1CC(=O)O (stereo partly drawn)", "experimental target": "HepG2 human hepatocytes", "TC50 HepG2": "> 25 µM"}

---

Assay: in vitro
Format: in vitro ADME
Details: CD-1, mouse, plasma, 1 µmol/L, 37 °C, mean ± SD; read-out: Mouse Plasma Stability t½

{"entry smiles": "CO[C@H]1OC(=O)C=C2[C@@]13O[C@@H]3[C@H]1OC(=O)[C@@]3(C)CCC[C@@]2(C)[C@@H]13", "half-life at 1 µmol/L, h": 1.76}

---

Tested on: HFF cells
Experiment: HFF cytotoxicity assay
Type: cell-based
Conditions: confluent
This section presents compounds with their documented TC50 HFF (confluent) values.

{"compound": "CO[C@H]1OC(=O)C=C2C1=C[C@H]1OC(=O)[C@@]3(C)CCC[C@@]2(C)[C@@H]13 [compound 7, oidiolactone B]", "TC50 HFF (confluent)": "> 30 µM"}
{"compound": "CO[C@H]1OC(=O)C=C2C1=C[C@H]1OC(=O)[C@@]3(C)[C@H](O)CC[C@@]2(C)[C@@H]13 [compound 8, oidiolactone J]", "TC50 HFF (confluent)": "> 30 µM"}
{"compound": "COC(=O)/C=C1/[C@]2(C=O)O[C@@H]2[C@H]2OC(=O)[C@@]3(C)CCC[C@@]1(C)[C@@H]23 [compound 6, oidiolactone I]", "TC50 HFF (confluent)": "> 30 µM"}

---

Test system: HepG2 human hepatocytes
Test: HepG2 cytotoxicity assay (MTS)
Type: cell-based
Details: 48 h, mean +/- SD

{"entry smiles": "CO[C@H]1OC(=O)C=C2C1=C[C@H]1OC(=O)[C@@]3(C)[C@H](O)CC[C@@]2(C)[C@@H]13", "experimental target": "HepG2 human hepatocytes", "TC50 HepG2": "> 25 µM"}
{"entry smiles": "C[C@]12C(=O)O[C@@H]3[C@H]4O[C@@]45C(=CC(=O)O[C@H]5O)[C@@](C)(CC[C@H]1O)[C@@H]32", "experimental target": "HepG2 human hepatocytes", "TC50 HepG2": "> 25 µM"}
{"entry smiles": "COC(=O)/C=C1/[C@]2(C=O)O[C@@H]2[C@H]2OC(=O)[C@@]3(C)CCC[C@@]1(C)[C@@H]23", "experimental target": "HepG2 human hepatocytes", "TC50 HepG2": "> 25 µM"}
